# TARGET OR TEST SYSTEM: T1, human CD39 (human, UniProt P49961 1-510)
# T1 sequence: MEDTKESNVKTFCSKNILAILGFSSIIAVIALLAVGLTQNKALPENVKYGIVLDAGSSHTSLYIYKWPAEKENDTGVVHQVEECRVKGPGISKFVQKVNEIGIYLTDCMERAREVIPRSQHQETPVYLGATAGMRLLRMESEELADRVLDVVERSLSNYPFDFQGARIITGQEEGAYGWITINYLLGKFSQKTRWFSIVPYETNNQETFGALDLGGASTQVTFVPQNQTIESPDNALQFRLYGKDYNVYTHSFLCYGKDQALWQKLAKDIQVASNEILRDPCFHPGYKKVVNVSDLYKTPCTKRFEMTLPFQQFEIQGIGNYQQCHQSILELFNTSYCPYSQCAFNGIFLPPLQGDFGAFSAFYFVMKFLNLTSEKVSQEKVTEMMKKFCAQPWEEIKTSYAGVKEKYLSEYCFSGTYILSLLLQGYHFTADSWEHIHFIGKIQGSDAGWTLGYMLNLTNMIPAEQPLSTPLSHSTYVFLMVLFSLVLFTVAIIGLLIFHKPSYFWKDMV
# ASSAY TEXT: cell-based or functional assay
MEASUREMENT NAME: ATPase inhibition on SK-MEL-28 cells, IC50 (nM)
All answers are understood in nM, so give the number only.

Examples with answers:
# BINDER, UNITS, MEASURED
data = [
    ("hu23.H4L4 (antibody, V domains shown) VH: QVQLVQSGAEVKKPGASVKLSCKASGYNLKDTFLHWVKQAPGQGLEWIGRIDPANGNIKYDPKFQGRATLTADTSASTAYLELSSLRSEDTAVYYCANSPYYYGSGYRIFDVWGQGTTVTVSS VL: EIVLTQSPATLSASPGERVTISCSAFSSVNYMHWYQQKPGQAPRLLIYTTSNLASGIPARFSGSGSGTDYTLTISSMEPEDFAVYYCQQRSTYPFTFGQGTKLEIK", "nM", 0.487),
    ("hu23.H1L4 (antibody, V domains shown) VH: QVQLVQSGAEVKKPGASVKVSCKASGYNLKDTFLHWVRQAPGQRLEWMGRIDPANGNIKYDPKFQGRVTITRDTSASTAYMELSSLRSEDTAVYYCARSPYYYGSGYRIFDVWGQGTTVTVSS VL: EIVLTQSPATLSASPGERVTISCSAFSSVNYMHWYQQKPGQAPRLLIYTTSNLASGIPARFSGSGSGTDYTLTISSMEPEDFAVYYCQQRSTYPFTFGQGTKLEIK", "nM", 0.59),
]

Challenge: Which ATPase inhibition on SK-MEL-28 cells, IC50 reading was recorded for the binder hu23.H1L2 (antibody, V domains shown) VH: QVQLVQSGAEVKKPGASVKVSCKASGYNLKDTFLHWVRQAPGQRLEWMGRIDPANGNIKYDPKFQGRVTITRDTSASTAYMELSSLRSEDTAVYYCARSPYYYGSGYRIFDVWGQGTTVTVSS VL: EIVLTQSPATLSLSPGERATLSCSAFSSVNYMHWYQQKPGQAPRLLIYTTSNLASGIPARFSGSGSGTDYTLTISSLEPEDFAVYYCQQRSTYPFTFGQGTKLEIK ?
Response given: 0.964

Data origin: patent US20230416394A1
